I'd appreciate it if you could supply MIC values for the items below.
Test system: Staphylococcus aureus NRS384 (MRSA USA300)
Test: Initial MIC screening, broth microdilution (CLSI)
Assay type: cell-based
Conditions: Staphylococcus aureus, Staphylococcus aureus NRS384 (MRSA USA300), broth microdilution, visual reading; read-out: MIC
Method: Method: The minimum inhibitory concentration (MIC) of the compounds 1-187, and control antibiotics (vancomycin, linezolid) was determined using the broth microdilution method against methicillin-resistant Staphylococcus aureus (MRSA) USA 300 using the broth microdilution method according to the guidelines outlined by the Clinical and Laboratory Standards Institute (CLSI). MRSA strain was cultivated on Tryptic soy agar plates and let grow for 24 hours at 37° C. under aerobic conditions. […]

>  <molecule>
C=C1C(=O)O[C@H](c2ccc(OC)cc2)[C@H]1C

>  <MIC>
> 128 µg/mL

$$$$
>  <molecule>
C=C1C(=O)O[C@H](CCCCCCCC)[C@@H]1/C=C/c1ccccc1

>  <MIC>
> 128 µg/mL

$$$$
>  <molecule>
C=C1C(=O)O[C@H](c2cccnc2)[C@@H]1C

>  <MIC>
> 128 µg/mL

$$$$

Please state MIC for every molecule in the list that follows.
1. C=C(C(=O)OC)C(c1cccc2ccccc12)C(O)c1ccc2ccccc2c1 (centres unmarked)
2. O=C1O[C@H](c2ccc3ccccc3c2)CC1CN1CCCCC1 (some centres unmarked)
3. C=C(C(=O)OC)C(c1ccc2ccccc2c1)C(O)c1ccc2ccccc2c1 (centres unmarked)
4. C=C1C(=O)O[C@H](c2cccc(F)c2)[C@@H]1CCC
5. C=C1C(=O)O[C@H](c2ccc(OCc3ccccc3)c(OC(C)=O)c2)[C@@H]1c1ccccc1Br

*A*
1: > 64 µg/mL; 2: > 128 µg/mL; 3: 1 to 2 µg/mL; 4: > 128 µg/mL; 5: > 128 µg/mL

* * *

Tested on: Staphylococcus aureus NRS384 (MRSA USA300)
Experiment: Initial MIC screening, broth microdilution (CLSI)
Assay type: cell-based
Conditions: Staphylococcus aureus, Staphylococcus aureus NRS384 (MRSA USA300), broth microdilution, visual reading; read-out: MIC
observable: MIC

Solved entries (count: 3):
>  <compound>
C=C1C(=O)O[C@H](c2ccc(N(C)C)cc2)[C@@H]1c1ccccc1 [Compound 98]

>  <result>
> 128 µg/mL

$$$$
>  <compound>
O=C1O[C@H](c2cccc3ccccc23)[C@H](c2cccc3ccccc23)C1CN1CCCCC1 (stereo partly drawn) [Compound 163]

>  <result>
> 64 µg/mL

$$$$
>  <compound>
CCCCC[C@@H]1CC(CN2CCCCC2)C(=O)O1 (stereo partly drawn) [Compound 26]

>  <result>
> 128 µg/mL

$$$$

Parameters: items (list). Returns: MIC for each item.
1. C=C1C(=O)O[C@H](c2ccc(OC)cc2)[C@@H]1c1ccccc1B1OC(C)(C)C(C)(C)O1 [Compound 87]
2. O=C1O[C@H](c2ccccc2)CC1CN1CCCCC1 (stereo partly drawn) [Compound 32]
3. C=C1C(=O)O[C@H](c2cccc3ccccc23)[C@@H]1c1ccc2ccccc2c1 [Compound 155]
4. CC1(C)CC(CN2CCCCC2)C(=O)O1 (stereo not drawn) [Compound 80]
5. COc1ccc([C@H]2OC(=O)[C@@H](CN(C)C)[C@H]2c2ccccc2)cc1 [Compound 8]

*A*
1. > 128 µg/mL
2. > 128 µg/mL
3. 1 to 2 µg/mL
4. > 128 µg/mL
5. > 256 µg/mL

*Q* Tell me the measured MIC of C=C1C(=O)O[C@H](c2c(OC)cc(OC)cc2OC)[C@@H]1c1ccc(C(F)(F)F)cc1 [Compound 61] , please.
*A* > 128 µg/mL

* * *

Please provide measured MIC for the entries that follow.
Test system: Staphylococcus aureus NRS384 (MRSA USA300)
Assay: Initial MIC screening, broth microdilution (CLSI)
Type: cell-based
Settings: Staphylococcus aureus, Staphylococcus aureus NRS384 (MRSA USA300), broth microdilution, visual reading; read-out: MIC

Check out these entries, answers already filled in.
>  <compound>
C=C1C(=O)O[C@H](c2ccc3ccccc3c2)[C@@H]1c1ccccc1

>  <result>
16 µg/mL

$$$$
>  <compound>
O=C1OC2(CCCC2)CC1CN1CCCCC1 (centres unmarked)

>  <result>
> 128 µg/mL

$$$$
>  <compound>
C=C1C(=O)O[C@H](c2ccc3ccccc3c2)[C@@H]1c1cccc2ccccc12

>  <result>
> 64 µg/mL

$$$$
>  <compound>
C=C(C(=O)OC)C(c1ccc2ccccc2c1)C(O)c1ccccc1 (centres unmarked)

>  <result>
8 µg/mL

$$$$

Would you mind listing MIC for each of the following compounds?
1. C=C1C(=O)O[C@H](c2ccccc2O)[C@@H]1c1cccc(C#N)c1
2. O=C1O[C@H](c2ccc3ccccc3c2)[C@H](c2ccc3ccccc3c2)C1CN1CCCCC1 (some centres unmarked)
3. C=C(C(=O)OC)C(c1ccc2ccccc2c1)C(O)c1cccc2ccccc12 (centres unmarked)
4. N#Cc1ccc([C@H]2COC(=O)C2CN2CCCCC2)cc1 (some centres unmarked)

*A*
> 128 µg/mL
2 µg/mL
1 to 2 µg/mL
> 128 µg/mL

* * *

Assign MIC to each entry below.
System: Staphylococcus aureus NRS384 (MRSA USA300)
Assay: Initial MIC screening, broth microdilution (CLSI)
Assay type: cell-based
Conditions: Staphylococcus aureus, Staphylococcus aureus NRS384 (MRSA USA300), broth microdilution, visual reading; read-out: MIC
Method: Method: The minimum inhibitory concentration (MIC) of the compounds 1-187, and control antibiotics (vancomycin, linezolid) was determined using the broth microdilution method against methicillin-resistant Staphylococcus aureus (MRSA) USA 300 using the broth microdilution method according to the guidelines outlined by the Clinical and Laboratory Standards Institute (CLSI). MRSA strain was cultivated on Tryptic soy agar plates and let grow for 24 hours at 37° C. under aerobic conditions. […]

Here is how some molecules turned out for MIC.
>  <molecule>
C=C(C(=O)OC)C(c1cccc2ccccc12)C(O)c1cccc2ccccc12 (stereo not drawn)

>  <MIC>
> 64 µg/mL

$$$$
>  <molecule>
C=C1C(=O)O[C@H](c2ccc(OCc3ccccc3)c(OC)c2)[C@@H]1c1ccccc1Br

>  <MIC>
> 128 µg/mL

$$$$

Next molecule, please.
*Q* Give the measured MIC of CN(C)CC1C(=O)O[C@H](c2ccccc2)[C@@H]1c1ccc(C#N)cc1 (stereo partly drawn) .
*A* > 128 µg/mL

* * *

Provide the recorded MIC for the entries that follow.
Tested on: Staphylococcus aureus NRS384 (MRSA USA300)
Test: Initial MIC screening, broth microdilution (CLSI)
Type: cell-based
Details: Staphylococcus aureus NRS384 (MRSA USA300), broth microdilution, visual reading
Numbers only, in µg/mL.

>  <molecule>
C=C1C(=O)O[C@H](C2=CC=CCC2)[C@H]1c1cccc2ccccc12 [Compound 187]

>  <numeric.result>
1

$$$$

*Q* Param item = C=C(C(=O)OC)C(c1ccc2ccccc2c1)C(O)c1cccc2ccccc12 (stereo not shown) [Compound 148] ; retrieve measured MIC.
*A* 2
